Recorded cytotoxicity at 10 µM values for a group of molecules are listed next.
- assay info: Toxicity liver stage against HepG2, at 10uM
- Format: cell-based
- Design: test concentration 10 uM, cell line HepG2-A16-CD81EGFP
- details: human, HepG2-A16-CD81EGFP cells; read-out: INHIBITION

[
  {
    "molecule": "CCn1ccnc1C1CCN(C(=O)C(O)c2ccc(Cl)cc2)CC1 (configuration not stated)",
    "cytotoxicity at 10 µM / %": -0.65
  },
  {
    "molecule": "Cc1cc(CN2C[C@@H]3COC[C@H](C(=O)N4CCCCO4)[C@@H]3C2)no1",
    "cytotoxicity at 10 µM / %": -77.9
  },
  {
    "molecule": "CN1CCCC2(CCN(C(=O)Cn3ncc4ccccc4c3=O)C2)C1=O (configuration not stated)",
    "cytotoxicity at 10 µM / %": 1.57
  },
  {
    "molecule": "O=C(CN1C(=O)CCNC1=O)N1CCC2(CCc3ccccc32)CC1",
    "cytotoxicity at 10 µM / %": -11.2
  },
  {
    "molecule": "COc1ccc(C(C)NC(=O)NCCCn2cncn2)cc1F (configuration not stated)",
    "cytotoxicity at 10 µM / %": 2.12
  },
  {
    "molecule": "COc1cc(C(=O)NCC2CC2)nc2c(C)cc(F)cc12",
    "cytotoxicity at 10 µM / %": 7.52
  },
  {
    "molecule": "CCc1nc(C2CCCN(C(=O)NC3CC3)C2)no1 (configuration not stated)",
    "cytotoxicity at 10 µM / %": -15.3
  },
  {
    "molecule": "Cc1nnc([C@@H]2CC[C@@H]3[C@@H](CCN3C3CCC3)O2)o1",
    "cytotoxicity at 10 µM / %": 8.19
  },
  {
    "molecule": "CN1CCCC1c1ccc(N2CCOCC2)cn1 (configuration not stated)",
    "cytotoxicity at 10 µM / %": -2.21
  },
  {
    "molecule": "CC(CNC(=O)N1CCN(CC(F)F)CC1)Cc1cccs1 (configuration not stated)",
    "cytotoxicity at 10 µM / %": -4.92
  },
  {
    "molecule": "Cc1cccc(C)c1OCC(=O)N1CCOCC1c1ncon1 (configuration not stated)",
    "cytotoxicity at 10 µM / %": -17
  },
  {
    "molecule": "CC(C)CC(=O)N(C)Cc1nc(C(F)(F)F)cs1",
    "cytotoxicity at 10 µM / %": 8.32
  }
]

====

- assay info: Toxicity liver stage against HepG2, at 10uM
- Assay type: cell-based
- Parameters: test concentration 10 uM, cell line HepG2-A16-CD81EGFP
- details: human, HepG2-A16-CD81EGFP cells; read-out: INHIBITION
Entries and their cytotoxicity at 10 µM values follow.
recorded metric: cytotoxicity at 10 µM

[
  {
    "compound": "CCOc1ccc(C#N)cc1NCC(=O)Nc1cc(F)ccc1F",
    "measured value": "-9.47%"
  },
  {
    "compound": "CN(Cc1ccon1)C(=O)C1CC(=O)N(Cc2ccncc2)C1 (configuration not stated)",
    "measured value": "-0.368%"
  },
  {
    "compound": "Cc1nc2cc(C(=O)N(CCC#N)CCC#N)ccc2n1C",
    "measured value": "-3.91%"
  },
  {
    "compound": "C=C(C)CN1CCC(c2n[nH]c(C3CC3)n2)CC1",
    "measured value": "-1.92%"
  },
  {
    "compound": "CC(C)Cc1nc(CN2CCCC2Cn2cncn2)no1 (configuration not stated)",
    "measured value": "-8.66%"
  },
  {
    "compound": "Cc1nc(CN(C)C2CCN(CC(=O)N(C)CCC#N)C2)no1 (configuration not stated)",
    "measured value": "-3.6%"
  },
  {
    "compound": "CCCc1nc(NCCCn2cccn2)c2c(n1)c(C)nn2CC",
    "measured value": "7.88%"
  },
  {
    "compound": "CN(C)C(=O)CCNC(=O)Nc1sc2ccccc2c1Cl",
    "measured value": "6.14%"
  },
  {
    "compound": "CN(C(=O)c1cccc(NCc2cccs2)c1)C(C1CC1)C1CC1",
    "measured value": "8.41%"
  },
  {
    "compound": "Cc1cc(N(C)C)cc(C2CCN(S(=O)(=O)c3cccs3)C2)n1 (configuration not stated)",
    "measured value": "7.17%"
  },
  {
    "compound": "CC(O)CN1CCN(C(=O)c2cccn2Cc2ccccc2)CC1 (configuration not stated)",
    "measured value": "-8.87%"
  },
  {
    "compound": "CC(=O)N(C)C1CCN(C(=O)NCC(C)Cc2cccs2)CC1 (configuration not stated)",
    "measured value": "-1.99%"
  }
]

====

Reported cytotoxicity at 10 µM values for the following molecules.
- assay info: Toxicity liver stage against HepG2, at 10uM
- Assay type: cell-based
- Parameters: test concentration 10 uM, cell line HepG2-A16-CD81EGFP
- details: human, HepG2-A16-CD81EGFP cells; read-out: INHIBITION

[
  {
    "molecule": "CCn1cc(CN2CCCN(C(=O)c3cccc(C#N)c3)CC2)cn1",
    "cytotoxicity at 10 µM": "0.893%"
  },
  {
    "molecule": "CO[C@@]1(C)C[C@@H](O)C12CCN(C(=O)C1(c3ccccc3F)CC1)CC2",
    "cytotoxicity at 10 µM": "3.47%"
  },
  {
    "molecule": "COCc1noc(CN2C[C@H](C3CC3)[C@@H](N(C)C)C2)n1",
    "cytotoxicity at 10 µM": "1.31%"
  },
  {
    "molecule": "CC(O)CN1CCN(C(=O)c2cccc3[nH]ncc23)CC1 (stereo unspecified)",
    "cytotoxicity at 10 µM": "-20.5%"
  },
  {
    "molecule": "CN(Cc1nccn1C)C(=O)C1COCC(=O)N1Cc1ccccc1 (stereo unspecified)",
    "cytotoxicity at 10 µM": "1.01%"
  },
  {
    "molecule": "Cc1ccc(S(=O)(=O)N2CCN(Cc3ccncc3)CC2)c(Cl)c1",
    "cytotoxicity at 10 µM": "-0.147%"
  },
  {
    "molecule": "Cc1c(CN2CCc3[nH]cnc3C2C2CC2)[nH]c2ccc(F)cc12 (stereo unspecified)",
    "cytotoxicity at 10 µM": "10.8%"
  },
  {
    "molecule": "Cc1ccc(CN2C(=O)CCC23CCC(NCC2CCOC2)CC3)cc1 (stereo unspecified)",
    "cytotoxicity at 10 µM": "-4.75%"
  },
  {
    "molecule": "Cc1cc(C)c(CNC(=O)NCCNc2cnccn2)c(=O)[nH]1",
    "cytotoxicity at 10 µM": "-43.6%"
  },
  {
    "molecule": "CC(C)c1nnc(CN(C)C(c2ccccc2)c2ccc(F)cc2)o1 (stereo unspecified)",
    "cytotoxicity at 10 µM": "15.5%"
  },
  {
    "molecule": "c1ccc(C2CN(CCc3ccncc3)CCO2)cc1 (stereo unspecified)",
    "cytotoxicity at 10 µM": "-8.85%"
  }
]

Every entry's value here was drawn from ChEMBL document CHEMBL4513216.
